Measured values drawn from patent US20190119366A1 for this set.

Attribute: kon
- TARGET ENTITY: T1, recombinant human KAAG1 (Kidney associated antigen 1) (human, UniProt Q9UBP8 1-84)
- T1 construct: also called KAAG1 protein
- T1 sequence: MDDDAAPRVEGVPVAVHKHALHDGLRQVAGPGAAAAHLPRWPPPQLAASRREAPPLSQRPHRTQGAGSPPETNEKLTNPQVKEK
- PROCEDURE TEXT: SPR (BioRad ProteOn XPR36): antibody captured on an anti-human IgG Fc surface, KAAG1 injected as analyte, 1:1 Langmuir fit

BINDER	kon
humanized 3A4 antibody Lh2Hh1 (antibody, human IgG1, kappa, V domains shown, Human IgG1/kappa) VH: QVQLVQSGAEVKKPGASVKVSCKASGYTFTDDYMSWVRQAPGQGLEWMGDINPYNGDTNYNQKFKGRVTITADTSTSTAYMELSSLRSEDTAVYYCARDPGAMDYWGQGTLVTVSS VL: DVVMTQTPLSLPVTPGEPASISCRSSQSLLHSNGNTYLEWYLQKPGQSPKLLIYTVSNRFSGVPDRFSGSGSGTDFTLKISRVEAEDVGVYYCFQGSHVPLTFGQGTKLEIKR	6.97e+06 M⁻¹ s⁻¹
humanized 3A4 antibody Lh1Hh3 (antibody, human IgG1, kappa, V domains shown, Human IgG1/kappa) VH: QIQLVQSGAEVKKPGASVKVSCKASGYTFTDDYMSWVRQAPGQGLEWIGDINPYNGDTNYNQKFKGRATLTVDKSTSTAYMELSSLRSEDTAVYYCARDPGAMDYWGQGTLVTVSS VL: DIVMTQTPLSLPVTPGEPASISCRSSQSLLHSNGNTYLEWYLQKPGQSPQLLIYTVSNRFSGVPDRFSGSGSGTDFTLKISRVEAEDVGVYYCFQGSHVPLTFGQGTKLEIKR	6.46e+06 M⁻¹ s⁻¹
humanized 3A4 antibody Lh2Hh4 (antibody, human IgG1, kappa, V domains shown, Human IgG1/kappa; 10 mouse framework residues retained; also called H4L2) VH: QIQLVQSGAEVKKPGASVKVSCKASGYTFTDDYMSWVKQAPGQGLEWIGDINPYNGDTNYNQKFKGKATLTVDKSTSTAYMELSSLRSEDTAVYYCARDPGAMDYWGQGTLVTVSS VL: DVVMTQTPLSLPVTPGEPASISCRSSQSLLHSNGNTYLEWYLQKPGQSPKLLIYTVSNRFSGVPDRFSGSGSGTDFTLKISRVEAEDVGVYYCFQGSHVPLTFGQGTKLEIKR	4.57e+06 M⁻¹ s⁻¹
